Data provenance: PubChem BioAssay AID1963870

System: 292921-168-R-J2-PDC KRAS tumor spheroid viability
Assay: Anticancer human tumor 292921-168-R-J2-PDC patient-derived pancreatic carcinoma cell line growth inhibition [KRAS2]
Conditions: second compound 0.1 µM; first compound 0.00316 µM; stronger effect = lower value; spheroids with HUVEC and MSC
Please respond with yes (1) when measured viability, T/C is strictly beneath 50%, and with no (0) in all other cases.

Qu. Lab note: viability, T/C threshold 50%. Does this compound come in strictly under it? CC(C)n1nc(-c2ccc3oc(N)nc3c2)c2c(N)ncnc21 + CC1OCC2(CCN(c3cnc(Sc4ccnc(N)c4Cl)c(N)n3)CC2)C1N
Ans. yes (1)

Qu. Then this compound: CN(C)C/C=C/C(=O)Nc1cc2c(Nc3ccc(F)c(Cl)c3)ncnc2cc1O[C@H]1CCOC1 + CC1OCC2(CCN(c3cnc(Sc4ccnc(N)c4Cl)c(N)n3)CC2)C1N
Ans. no (0)

Qu. // next record Cn1ncnc1[C@H]1c2n[nH]c(=O)c3cc(F)cc(c23)N[C@@H]1c1ccc(F)cc1 + CC1OCC2(CCN(c3cnc(Sc4ccnc(N)c4Cl)c(N)n3)CC2)C1N
Ans. no (0)

Qu. Queued: CC(C)n1nc(-c2ccc3oc(N)nc3c2)c2c(N)ncnc21 + C=CC(=O)N1CCN(c2nc(OCC3CCCN3C)nc3c2CCN(c2cccc4cccc(C)c24)C3)CC1CC#N
Ans. yes (1)

Qu. Can you handle CC(=O)Nc1cccc(-n2c(=O)n(C3CC3)c(=O)c3c(Nc4ccc(I)cc4F)n(C)c(=O)c(C)c32)c1 + COc1cc2nc(C)nc(NC(C)c3cc(N)cc(C(F)(F)F)c3)c2cc1OC1CCOC1 next?
Ans. yes (1)

###

System: 292921-168-R-J2-PDC KRAS tumor spheroid viability
Assay: Anticancer human tumor 292921-168-R-J2-PDC cell line growth inhibition [KRAS2];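 note: drug exposure lasted seven days after spheroids formed for three days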
Conditions: curve of first compound; second compound 3.16 µM; spheroids with HUVEC and MSC
METRIC_NAME: pIC50
Keep in mind that pIC50 stands for -log10 of concentration in molar terms.

Qu. What does the data say about its pIC50? Entry: CN(C)C/C=C/C(=O)Nc1cc2c(Nc3ccc(F)c(Cl)c3)ncnc2cc1O[C@H]1CCOC1 + CNCc1ccccc1-c1csc(C(C)Nc2nc(C)nc3cc(OC)c(OC)cc23)c1
Ans. 8.71

Qu. Lookup COc1cc2nccc(Oc3ccc(NC(=O)C4(C(=O)Nc5ccc(F)cc5)CC4)cc3)c2cc1OC + C=CC(=O)N1CCN(c2nc(=O)n(-c3c(C)ccnc3C(C)C)c3nc(-c4c(O)cccc4F)c(F)cc23)C(C)C1
Ans. 6.09

Qu. What do you have for CC1(C)CCC(CN2CCN(c3ccc(C(=O)NS(=O)(=O)c4ccc(NCC5CCOCC5)c([N+](=O)[O-])c4)c(Oc4cnc5[nH]ccc5c4)c3)CC2)=C(c2ccc(Cl)cc2)C1 + C=CC(=O)N1CCN(c2nc(=O)n(-c3c(C)ccnc3C(C)C)c3nc(-c4c(O)cccc4F)c(F)cc23)C(C)C1 ?
Ans. 5.90

Qu. What do you get for CC(C)NCC(C(=O)N1CCN(c2ncnc3c2C(C)CC3O)CC1)c1ccc(Cl)cc1 (stereo not given) + C=CC(=O)N1CCN(c2nc(=O)n(-c3c(C)ccnc3C(C)C)c3nc(-c4c(O)cccc4F)c(F)cc23)C(C)C1 ?
Ans. 5.79

###

System: 292921-168-R-J2-PDC KRAS tumor spheroid viability
Assay: Anticancer human tumor 292921-168-R-J2-PDC cell line growth inhibition [KRAS2];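 note: drug exposure lasted seven days after spheroids formed for three days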;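 for viability, T/C: percent of DMSO vehicle control viability which is 100%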
Details: second compound 1 µM; first compound 0.1 µM; stronger effect = lower value; spheroids with HUVEC and MSC
Excerpt: Multicellular complex tumor spheroid response to RAS pathway inhibitors in combination with a targeted agents in patient-derived cell lines with oncogenic KRAS variants from multiple cancer types A high-throughput screen of multi-cell type tumor spheroids was designed to identify active combinations of targeted small molecules and KRAS pathway inhibitors. […] Compounds. […] If the clinical Cmax for an agent had not been determined, the highest concentration tested was 10 microM. […]
For each entry below, report its viability, T/C value.
Numbers only here, please. The scale is %.

Qu. viability, T/C of CC1OCC2(CCN(c3cnc(Sc4ccnc(N)c4Cl)c(N)n3)CC2)C1N (stereo not drawn) + C=CC(=O)N1CCN(c2nc(=O)n(-c3c(C)ccnc3C(C)C)c3nc(-c4c(O)cccc4F)c(F)cc23)C(C)C1 on 292921-168-R-J2-PDC KRAS tumor spheroid viability?
Ans. 89.9

Qu. Param item: CC(=O)OC12COC1CC(O)C1(C)C(=O)C(O)C3=C(C)C(OC(=O)C(O)C(NC(=O)OC(C)(C)C)c4ccccc4)CC(O)(C(OC(=O)c4ccccc4)C21)C3(C)C (stereo not drawn) + CC1OCC2(CCN(c3cnc(Sc4ccnc(N)c4Cl)c(N)n3)CC2)C1N
Ans. 13.4

Qu. Check COc1cc2nccc(Oc3ccc(NC(=O)C4(C(=O)Nc5ccc(F)cc5)CC4)cc3)c2cc1OC + CNCc1ccccc1-c1csc(C(C)Nc2nc(C)nc3cc(OC)c(OC)cc23)c1 too.
Ans. 65.5

###

Test system: 292921-168-R-J2-PDC KRAS tumor spheroid viability
Assay: Anticancer human tumor 292921-168-R-J2-PDC cell line growth inhibition [KRAS2];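 note: drug exposure lasted seven days after spheroids formed for three days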;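 for viability, T/C: percent of DMSO vehicle control viability which is 100%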
Details: second compound 0.0316 µM; first compound 0.316 µM; stronger effect = lower value; spheroids with HUVEC and MSC
From the text: Multicellular complex tumor spheroid response to RAS pathway inhibitors in combination with a targeted agents in patient-derived cell lines with oncogenic KRAS variants from multiple cancer types A high-throughput screen of multi-cell type tumor spheroids was designed to identify active combinations of targeted small molecules and KRAS pathway inhibitors. […] Compounds. […] If the clinical Cmax for an agent had not been determined, the highest concentration tested was 10 microM. […]
Please go through the items and note down their viability, T/C.
Give a bare numeral; the unit % is implied.

Qu. Could you share which viability, T/C value was measured for O=C(c1cc(Cc2n[nH]c(=O)c3ccccc23)ccc1F)N1CCN(C(=O)C2CC2)CC1 + C=CC(=O)N1CCN(c2nc(OCC3CCCN3C)nc3c2CCN(c2cccc4cccc(C)c24)C3)CC1CC#N ?
Ans. 102

Qu. Note, next up: CC(=O)OC12COC1CC(O)C1(C)C(=O)C(O)C3=C(C)C(OC(=O)C(O)C(NC(=O)OC(C)(C)C)c4ccccc4)CC(O)(C(OC(=O)c4ccccc4)C21)C3(C)C (stereo not given) + C=CC(=O)N1CCN(c2nc(OCC3CCCN3C)nc3c2CCN(c2cccc4cccc(C)c24)C3)CC1CC#N
Ans. 11.3

Qu. Next entry: Cn1nccc1Nc1nccc(-c2cc3c(s2)C(C)(C)N(CCN2CCOCC2)C3=O)n1 + C=CC(=O)N1CCN(c2nc(OCC3CCCN3C)nc3c2CCN(c2cccc4cccc(C)c24)C3)CC1CC#N
Ans. 20.6

Qu. How about this compound: COc1cc2nccc(Oc3ccc(NC(=O)C4(C(=O)Nc5ccc(F)cc5)CC4)cc3)c2cc1OC + C=CC(=O)N1CCN(c2nc(OCC3CCCN3C)nc3c2CCN(c2cccc4cccc(C)c24)C3)CC1CC#N
Ans. 94.2

Qu. Here is the next compound: COC(=O)c1ccc2c(C(=Nc3ccc(N(C)C(=O)CN4CCN(C)CC4)cc3)c3ccccc3)c(O)[nH]c2c1 + C=CC(=O)N1CCN(c2nc(OCC3CCCN3C)nc3c2CCN(c2cccc4cccc(C)c24)C3)CC1CC#N
Ans. 16.8

###

Test system: 292921-168-R-J2-PDC KRAS tumor spheroid viability
Assay: Anticancer human tumor 292921-168-R-J2-PDC cell line growth inhibition [KRAS2];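 note: drug exposure lasted seven days after spheroids formed for three days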;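 for viability, T/C: percent of DMSO vehicle control viability which is 100%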
Conditions: second compound 0.316 µM; first compound 0.316 µM; stronger effect = lower value; spheroids with HUVEC and MSC
What viability, T/C was measured for each of the following?
Express your answer in %, writing the number without its unit.

Qu. What value of viability, T/C has been recorded for this entry: CCN1CCN(Cc2ccc(Nc3ncc(F)c(-c4cc(F)c5nc(C)n(C(C)C)c5c4)n3)nc2)CC1 + COc1cc2nc(C)nc(NC(C)c3cc(N)cc(C(F)(F)F)c3)c2cc1OC1CCOC1
Ans. 28.4

Qu. Do the same for CC(=O)OC12COC1CC(O)C1(C)C(=O)C(O)C3=C(C)C(OC(=O)C(O)C(NC(=O)OC(C)(C)C)c4ccccc4)CC(O)(C(OC(=O)c4ccccc4)C21)C3(C)C (stereo not given) + CNCc1ccccc1-c1csc(C(C)Nc2nc(C)nc3cc(OC)c(OC)cc23)c1 please
Ans. 13

Qu. // repeat for CC1OCC2(CCN(c3cnc(Sc4ccnc(N)c4Cl)c(N)n3)CC2)C1N (stereo not given) + C=CC(=O)N1CCN(c2nc(OCC3CCCN3C)nc3c2CCN(c2cccc4cccc(C)c24)C3)CC1CC#N and report
Ans. 37.4

Qu. And Cn1nccc1Nc1nccc(-c2cc3c(s2)C(C)(C)N(CCN2CCOCC2)C3=O)n1 + CC1OCC2(CCN(c3cnc(Sc4ccnc(N)c4Cl)c(N)n3)CC2)C1N ?
Ans. 12.6

Qu. Would you mind doing CCN1CCN(Cc2ccc(Nc3ncc(F)c(-c4cc(F)c5nc(C)n(C(C)C)c5c4)n3)nc2)CC1 + C=CC(=O)N1CCN(c2nc(=O)n(-c3c(C)ccnc3C(C)C)c3nc(-c4c(O)cccc4F)c(F)cc23)C(C)C1 as well?
Ans. 35.3
